- assay-system: human DLL3 protein expressed on CHO-K1 recombinant cells (human DLL3 extracellular segment fused to EpCAM transmembrane and intracellular regions) (human) (UniProt Q9NYJ7)
- Sequence (Q9NYJ7 other isoform, or with tags, fused parts or gaps limits assumed): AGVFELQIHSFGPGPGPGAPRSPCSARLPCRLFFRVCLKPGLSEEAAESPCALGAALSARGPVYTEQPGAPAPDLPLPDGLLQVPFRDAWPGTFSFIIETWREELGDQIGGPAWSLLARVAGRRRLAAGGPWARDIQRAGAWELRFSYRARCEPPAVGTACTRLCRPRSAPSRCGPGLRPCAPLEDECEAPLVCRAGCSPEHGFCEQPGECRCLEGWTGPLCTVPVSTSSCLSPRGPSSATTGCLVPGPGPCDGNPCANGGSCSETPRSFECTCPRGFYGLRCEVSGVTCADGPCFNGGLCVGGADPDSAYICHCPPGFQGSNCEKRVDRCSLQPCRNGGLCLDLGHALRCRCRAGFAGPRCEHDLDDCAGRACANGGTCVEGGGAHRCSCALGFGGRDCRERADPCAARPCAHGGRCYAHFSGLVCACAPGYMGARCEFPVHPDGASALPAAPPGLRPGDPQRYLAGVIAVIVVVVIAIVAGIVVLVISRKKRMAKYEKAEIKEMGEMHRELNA
- experimental-protocol: FACS, CHO-K1 hDLL3 cells, 0.16 nM antibody
quantity: MFI
Put down the number, then write its unit next to it.

Example binders with recorded MFI:
1. Hab009VL1aVH1-hFc (scFv, part only; not given: scFv linker and human IgG1 Fc, V domains shown, not shown: another chain or arm of the molecule; a dimerising Fc or GST; small tags and cut ends) VL: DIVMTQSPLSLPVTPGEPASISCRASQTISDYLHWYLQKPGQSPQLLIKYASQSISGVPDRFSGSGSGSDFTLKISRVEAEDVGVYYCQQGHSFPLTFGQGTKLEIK VH: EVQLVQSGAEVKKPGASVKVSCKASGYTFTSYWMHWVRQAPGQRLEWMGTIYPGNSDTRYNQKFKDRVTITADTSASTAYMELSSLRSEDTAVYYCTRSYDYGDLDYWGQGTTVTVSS	5840 MFI
2. Hab009VL3aVH1-hFc (Fc fusion, part only; not given: Linker and human IgG1 Fc, not shown: a dimerising Fc or GST) chain, part: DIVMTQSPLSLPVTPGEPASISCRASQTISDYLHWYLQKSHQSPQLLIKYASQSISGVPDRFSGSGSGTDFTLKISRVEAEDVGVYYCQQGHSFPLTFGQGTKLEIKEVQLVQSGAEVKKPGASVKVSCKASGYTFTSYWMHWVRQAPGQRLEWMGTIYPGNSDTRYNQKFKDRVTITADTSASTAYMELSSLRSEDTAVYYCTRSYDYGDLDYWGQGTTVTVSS	5730 MFI
3. Hab008L1H2a-hFc (scFv, part only; not given: VL-VH linker and human IgG1 Fc, V domains shown, not shown: another chain or arm of the molecule; a dimerising Fc or GST; small tags and cut ends) VL: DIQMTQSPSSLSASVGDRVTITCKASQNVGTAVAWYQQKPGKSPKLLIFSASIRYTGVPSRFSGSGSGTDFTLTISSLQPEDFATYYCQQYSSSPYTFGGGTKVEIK VH: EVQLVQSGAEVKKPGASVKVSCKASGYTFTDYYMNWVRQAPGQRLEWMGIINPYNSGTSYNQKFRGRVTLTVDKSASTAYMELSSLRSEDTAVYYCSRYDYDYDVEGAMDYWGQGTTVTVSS	866 MFI
4. Hab008L1H5-hFc (scFv, part only; not given: VL-VH linker and human IgG1 Fc, V domains shown, not shown: another chain or arm of the molecule; a dimerising Fc or GST; small tags and cut ends) VL: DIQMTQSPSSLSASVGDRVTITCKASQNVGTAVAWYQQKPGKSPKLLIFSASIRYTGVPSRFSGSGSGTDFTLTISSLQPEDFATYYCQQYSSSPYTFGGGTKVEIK VH: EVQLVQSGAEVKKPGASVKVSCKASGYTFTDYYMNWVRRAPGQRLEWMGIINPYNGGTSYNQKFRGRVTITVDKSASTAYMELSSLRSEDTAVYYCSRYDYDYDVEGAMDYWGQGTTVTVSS	521 MFI

In: What value of measured MFI is listed for Hab014VL1VH2-hFc (scFv, part only; not given: VL-VH linker and human IgG1 Fc, V domains shown, not shown: another chain or arm of the molecule; a dimerising Fc or GST; small tags and cut ends) VL: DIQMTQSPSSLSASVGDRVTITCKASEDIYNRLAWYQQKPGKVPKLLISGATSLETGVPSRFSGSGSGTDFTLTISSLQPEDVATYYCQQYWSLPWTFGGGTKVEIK VH: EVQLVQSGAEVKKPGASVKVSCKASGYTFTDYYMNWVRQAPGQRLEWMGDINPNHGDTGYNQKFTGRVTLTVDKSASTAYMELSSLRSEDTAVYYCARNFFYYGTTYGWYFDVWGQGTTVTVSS ?
Out: 2130 MFI
